Parameter: hAMYR3 Potency, 1% HSA, EC50 [pM]. Scope: all listed entries.
Molecular target: T1, human amylin-3(a) receptor (human, UniProt P30988 25-474; O60896 24-148)
T1 sequence (looked up) 1: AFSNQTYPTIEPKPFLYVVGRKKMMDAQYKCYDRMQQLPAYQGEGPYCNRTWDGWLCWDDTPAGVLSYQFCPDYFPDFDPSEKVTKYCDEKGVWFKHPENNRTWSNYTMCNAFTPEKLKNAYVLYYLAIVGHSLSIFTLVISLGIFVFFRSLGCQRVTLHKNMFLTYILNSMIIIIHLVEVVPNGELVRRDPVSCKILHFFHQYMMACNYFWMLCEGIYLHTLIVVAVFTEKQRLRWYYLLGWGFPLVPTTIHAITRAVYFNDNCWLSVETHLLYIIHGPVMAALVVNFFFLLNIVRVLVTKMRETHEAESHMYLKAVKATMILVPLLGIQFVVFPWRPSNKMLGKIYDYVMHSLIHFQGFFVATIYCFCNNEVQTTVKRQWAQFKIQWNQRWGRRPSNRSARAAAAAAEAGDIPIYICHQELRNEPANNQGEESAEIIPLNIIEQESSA
T1 sequence (looked up) 2: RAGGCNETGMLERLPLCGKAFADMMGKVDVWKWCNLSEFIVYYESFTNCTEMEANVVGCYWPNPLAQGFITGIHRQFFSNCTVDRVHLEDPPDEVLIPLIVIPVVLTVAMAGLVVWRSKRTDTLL
Test: cell-based or functional assay
Numbered stars: 1 amine (or outer) side, 2 acyl side, 3 side chain; on linkers, the order of the positions; unused ones are H or OH. Square brackets hold non-standard residues; d marks the D form. Side chains are listed from the residue outwards. * marks the point of attachment. C20 diacid = O=C(O)CCCCCCCCCCCCCCCCCCC(=O)*; γGlu = O=C(O)[C@H](CCC(=O)[*:2])N[*:1]; Chem. 27 = not defined here; AEEA = NCCOCCOCC(=O)O; Aib = CC(C)(N)C(=O)O
The answer is to be given in pM; state only the numeric part.

Reference set (3 entries):
BINDER	DISPLAY UNIT	QUANTITATIVE RESULT
Compound 179 (reading uncertain) peptide: Y[Aib]EGTFTSDYSILLEEIAAREFIEWLLAGGPSSGAGASHLSTAQTQRLSAELHK(Chem. 27)LATEPRTETGSGSP-NH2	pM	1350
Compound 189 (reading uncertain) peptide: Y[Aib]EGTFTSDYSILLEEIAAREFIEWLLAGGPSSGAGEAPGEAPGASHLSTAQTQRLSAELHK(Chem. 27)LATLPRTETGSGSP-NH2	pM	1210
Compound 181 (reading uncertain) peptide: Y[Aib]EGTFTSDYSILLEEIAAREFIEWLLAGGPSSEAGASQLSTAQTQRLSAELHK(Chem. 27)LATLPRTETGSGSP-NH2	pM	1300

Shifting focus to the binder that follows.
Item Compound 115 (peptide) peptide: Y[Aib]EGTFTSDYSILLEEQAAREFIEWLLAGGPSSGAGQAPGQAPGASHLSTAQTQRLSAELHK([AEEA-AEEA-γGlu-C20 diacid])LATLPRTETGSGSP-NH2 has what recorded hAMYR3 Potency, 1% HSA, EC50 [pM]?
551

Hello, the source for this data is patent US20260174875A1, in case you need it.
